Test: AUC (0 to t) in Sprague-Dawley rat at 2 mg/kg, iv administered as cassette dosing
Assay type: ADME, organism-based
Parameters: dose 2 mg/kg, route intravenous
Settings: plasma
ATTRIBUTE_MEASURED: log10 AUC(0-t) (log10 of the value in ng·h/mL)

| MOLECULE | log10 AUC(0-t) |
| --- | --- |
| C=C[C@]1(C)C[C@@H](OC(=O)CSc2cncc(NC(=O)CN)c2)[C@]2(C)[C@H](C)CC[C@]3(CCC(=O)[C@H]32)[C@@H](C)[C@@H]1O | 1.61 |
| C=C[C@]1(C)C[C@@H](OC(=O)CS[C@@H]2CC[C@@H](N)C[C@H]2O)[C@]2(C)[C@H](C)CC[C@]3(CCC(=O)[C@H]32)[C@@H](C)[C@@H]1O [LEFAMULIN] | 2.44 |
| C=C[C@]1(C)C[C@@H](OC(=O)CSc2cncc(NC(=O)CN3CCCC(O)C3)c2)[C@]2(C)[C@H](C)CC[C@]3(CCC(=O)[C@H]32)[C@@H](C)[C@@H]1O (stereo not given in full) | 2.72 |
| C=C[C@]1(C)C[C@@H](OC(=O)CSc2cncc(NC(=O)CN3CCC(O)CC3)c2)[C@]2(C)[C@H](C)CC[C@]3(CCC(=O)[C@H]32)[C@@H](C)[C@@H]1O | 2.81 |
| C=C[C@]1(C)C[C@@H](OC(=O)CSc2cncc(NC(=O)[C@@H](N)CC(C)C)c2)[C@]2(C)[C@H](C)CC[C@]3(CCC(=O)[C@H]32)[C@@H](C)[C@@H]1O | 1.84 |

====

Test: Aqueous solubility of the compound in water at pH 7.4
Conditions: water

| SMILES_DATA | solubility / mg/mL |
| --- | --- |
| C=C[C@]1(C)C[C@@H](OC(=O)CSc2cncc(COP(=O)([O-])[O-])c2)[C@]2(C)[C@H](C)CC[C@]3(CCC(=O)[C@H]32)[C@@H](C)[C@@H]1O.[Na+].[Na+] | 106 |

====

Assay: Chemical stability of solid state of the compound assessed as compound remaining after 100 days by UV/HPLC analysis
Assay type: physicochemical
Details: read-out: Stability
ATTRIBUTE_MEASURED: remaining at 2400 h (%)

| SMILES_DATA | MEAS_VALUE |
| --- | --- |
| C=C[C@]1(C)C[C@@H](OC(=O)CSc2cncc(COP(=O)([O-])[O-])c2)[C@]2(C)[C@H](C)CC[C@]3(CCC(=O)[C@H]32)[C@@H](C)[C@@H]1O.[Na+].[Na+] | 98.1 |

====

Below is a list of entries, each paired with its recorded log10 clearance value.
Assay: Clearance in Sprague-Dawley rat at 2 mg/kg, iv administered as cassette dosing
Type: ADME, organism-based
Design: dose 2 mg/kg, route intravenous
Settings: in vivo
ATTRIBUTE_MEASURED: log10 clearance (log10 of the value in mL/min/kg)

| COMPOUND | log10 clearance |
| --- | --- |
| C=C[C@]1(C)C[C@@H](OC(=O)CSc2cncc(NC(=O)CN3CCCC(O)C3)c2)[C@]2(C)[C@H](C)CC[C@]3(CCC(=O)[C@H]32)[C@@H](C)[C@@H]1O (stereo not given in full) | 1.81 |
| C=C[C@]1(C)C[C@@H](OC(=O)CSc2cncc(NC(=O)CN3CCC(O)CC3)c2)[C@]2(C)[C@H](C)CC[C@]3(CCC(=O)[C@H]32)[C@@H](C)[C@@H]1O | 1.73 |
| C=C[C@]1(C)C[C@@H](OC(=O)CSc2cncc(NC(=O)CN)c2)[C@]2(C)[C@H](C)CC[C@]3(CCC(=O)[C@H]32)[C@@H](C)[C@@H]1O | 2.92 |
| C=C[C@]1(C)C[C@@H](OC(=O)CSc2cncc(NC(=O)[C@@H](N)CC(C)C)c2)[C@]2(C)[C@H](C)CC[C@]3(CCC(=O)[C@H]32)[C@@H](C)[C@@H]1O | 2.69 |
| C=C[C@]1(C)C[C@@H](OC(=O)CS[C@@H]2CC[C@@H](N)C[C@H]2O)[C@]2(C)[C@H](C)CC[C@]3(CCC(=O)[C@H]32)[C@@H](C)[C@@H]1O | 2.09 |

This collection of values is drawn from ChEMBL document CHEMBL3286253.
